B1: Twister Ribozyme (parent)
chain: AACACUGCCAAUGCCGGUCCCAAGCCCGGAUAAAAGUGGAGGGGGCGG

- Variants of: B1
- assayInfo: self-cleavage, relative activity (ratio to wild type); higher = more cleavage; co-transcriptional
self-cleavage reference
// return a plain number; no unit text

residueChange: G17C G45C
self-cleavage: 0.0995

Recorded self-cleavage of U12G A34U , please.
0.701

Request: A40C G41A
0.115
